Test system: isolated rat uterus
measurement-description: uterotonic activity (isolated rat uterus)
condition-info: in words
measured-property: uterotonic activity

line_notation=C#CCN(C)C[C@@H]1C=C2c3cccc4[nH]cc(c34)C[C@H]2N(C)C1 assay_target="isolated rat uterus" measured_property="uterotonic activity" recorded_value="no uterotonic activity"
line_notation=C#CCNC(=O)[C@@H]1C=C2c3cccc4[nH]cc(c34)C[C@H]2N(C)C1 assay_target="isolated rat uterus" measured_property="uterotonic activity" recorded_value="no uterotonic activity"
line_notation=C#CCN(C)C(=O)[C@@H]1C=C2c3cccc4[nH]c(Br)c(c34)C[C@H]2N(C)C1 assay_target="isolated rat uterus" measured_property="uterotonic activity" recorded_value="no uterotonic activity"
